Reference source for all entries: PubChem BioAssay

method summary: galactose survival enhancers in mitochondrial complex I cybrids – cell-based, galactose medium, ATP luminescence, primary screen (AID 1645843);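 note: positive z means more ATP and so rescue of galactose-driven cybrid death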
condition summary: complex I mutant cybrid cells, 72 h, hits give high values
Think of 0.6 as a floor: if z-score stands on it or above, it is label 1; beneath it, label 0.

{"compound": "COc1ccc(CC(=O)NCc2cccc(SC)c2)cc1", "assigned label": "label 0"}
{"compound": "COC(=O)CCN1CC(OCc2ccncc2)CN(C(=O)Cc2c(F)cccc2Cl)CC1=O (stereo unspecified)", "assigned label": "label 1"}
{"compound": "CCCCCC(O)C=CC1C(O)CC(=O)C1CCCCCCC(=O)O (stereo unspecified)", "assigned label": "label 1"}
{"compound": "NC(=S)c1ccc[n+]([C@@H]2O[C@@H](COP(=O)([O-])OP(=O)(O)OC[C@H]3O[C@@H](n4cnc5c(N)ncnc54)C(OP(=O)(O)O)[C@H]3O)C(O)C2O)c1 (stereo partly specified)", "assigned label": "label 0"}
{"compound": "Cc1cc(-c2cnn(CC(=O)Nc3ccnn3Cc3ccccc3)c2)nc(N)n1", "assigned label": "label 0"}
{"compound": "COC(=O)c1c(NC(C)=O)c2cc(NC3CCOCC3)cnc2n1CCc1ccc(OC)cc1", "assigned label": "label 0"}
